Ref: patent US20220064327A1

- system.tested: T1, human factor X (human, UniProt P00742 41-179; P00742 183-488)
- T1 construct: Zymogen used as analyte in SPR; also called FX; Human FX (MW ~58 KDa)
- protocol.summary: SPR, IgG captured on anti-human IgG Fc, human FX as analyte
- Experimental: SPR was used to determine the binding affinity (KD) to FIX or FX respectively, the kinetic constants on-rate (kₒₙ) and off-rate (koff). Analyses was performed using a Biacore 8K (GE Healthcare) system. Monospecific antibodies (referred as ligand) which had been purified on Protein A were captured onto the anti-human IgG Fc CM4 surface at approximately 2 μg/ml. The ligands were injected for 60 seconds at 10 μl/min in all the active channels of all 8 flow channels. […]
Item-by-item account of koff
Could you give me the number in s⁻¹? Just the number is fine.

- binder: "TINA-0203.0128 (antibody, V domains shown, Monospecific IgG4PE) VH: QVQLVQSGAEVKKPGASVKVSCKASRYSFTSYYMHWVRQAPGQGLEWMGIINPKSGSTSYAQKFQGRVTMTRDTSTSTVYMELISLRSEDTAVYYCARDGYGSSSRCLQLWGQGTLVTVSS VL: SYVLTQPPSVSVAPGETARITCGGDNIGRKSVYWYQQKSGQAPVLVIYYDSDRPSGIPERFSGSNSGNTATLTISRVEAGDEADYYCQVWDGSSDHWVFGGGTKLTVL"
  koff / s⁻¹: 0.0598
- binder: "TINA-0217.0128 (antibody, V domains shown, Monospecific IgG4PE) VH: QVQLVQSGAEVTKPGASVKVSCKASRYSFTSYYMHWVRQAPGQGLEWMGIINPKSGSTSYAQKFQGRVTMTRDTSTSTVYMELSSLRSEDTAVYYCARDGYGSSSRCLQLWGQGTLVTVSS VL: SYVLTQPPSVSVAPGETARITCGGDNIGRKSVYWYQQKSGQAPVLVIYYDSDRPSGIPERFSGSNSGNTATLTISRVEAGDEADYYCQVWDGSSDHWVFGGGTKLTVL"
  koff / s⁻¹: 0.0574

Next binder, please.
Inquiry: Give its koff value. Item: TINA-0205.0128 (antibody, V domains shown, Monospecific IgG4PE) VH: QVQLVQSGAEVKKPGASVKVSCKASRYSFTSYYMHWVRQAPGQGLEWMGIINPKSGDTSYAQKFQGRVTMTRDTSTSTVYMELNSLRSEDTAVYYCARDGYGSSARCLQLWGQGTLVTVSS VL: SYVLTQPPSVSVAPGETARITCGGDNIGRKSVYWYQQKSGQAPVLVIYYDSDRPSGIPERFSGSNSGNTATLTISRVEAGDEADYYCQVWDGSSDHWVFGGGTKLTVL
Reply text: 0.0853
